# Resistance index (RI) per record follows
Test system: drug resistant LOVO/DX line vs drug sensitive LoVo line
Assay: Resistance index (RI): IC50 LOVO/DX divided by IC50 LoVo
Format: cell-based, human
Conditions: RI = IC50 resistant line / IC50 non-resistant line; 0<RI<2 able to overcome drug resistance; 2<RI<10 moderate ability; RI>10 no influence

Compound: CCC/C=C1/C(C)(C)CCCC1(C)CC(=O)OC[C@@H](O)COP(=O)([O-])OCC[N+](C)(C)C (stereo partly drawn)
Measurement Target: drug resistant LOVO/DX line vs drug sensitive LoVo line
Recorded Value: 1.23
--
Compound: C=CC(C)(CCC=C(C)C)CC(=O)O[C@H](COC(=O)CCCCCCCCCCCCCCC)COP(=O)([O-])OCC[N+](C)(C)C (stereo partly drawn)
Measurement Target: drug resistant LOVO/DX line vs drug sensitive LoVo line
Recorded Value: 1.91

Reported Resistance index (RI), compound C=CC(C)(CCC=C(C)C)CC(=O)O (stereo not drawn) : ____ 0.85
